Target: UniProt Q9NZQ7
experimental_readout: IC50

{"compound": "COc1nc(-c2cccc(-c3cccc(NC(=O)c4cn(C)c(=O)n(C)c4=O)c3Cl)c2Cl)ncc1CN[C@@H]1CCOC[C@@H]1O [Compound 1.089]", "target_or_test_system": "UniProt Q9NZQ7", "IC50": "< 10 nM"}

# get_value(readout='IC50', item= COc1nc(-c2cccc(-c3cccc(NC(=O)c4cn(C)c(=O)n(C)c4=O)c3Cl)c2Cl)ccc1CNCCCO [Compound 1.036] )
< 10 nM

Try the compound COc1nc(-c2cccc(-c3cccc(NC(=O)c4cn(C)c(=O)n(C)c4=O)c3Cl)c2Cl)ccc1CNC[C@@H](C)O [Compound 1.032]
< 10 nM

* * *

Measured pIC50 values are reported for all entries that follow.
Target: human PD-L1 (Homo sapiens (Human), UniProt Q9NZQ7)
Sequence (Q9NZQ7 19-239): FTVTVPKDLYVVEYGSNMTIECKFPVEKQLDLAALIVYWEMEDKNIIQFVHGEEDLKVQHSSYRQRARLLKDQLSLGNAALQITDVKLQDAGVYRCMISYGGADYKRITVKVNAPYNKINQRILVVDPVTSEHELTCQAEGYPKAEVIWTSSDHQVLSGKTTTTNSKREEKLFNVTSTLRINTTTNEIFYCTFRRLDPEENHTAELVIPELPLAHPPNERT
pIC50: −log10 of the molar value.

{"compound": "Cn1cc(C(=O)Nc2cccc(-c3cccc(-c4ccc(CNC[C@@H]5CCC(=O)N5)c(O)n4)c3Cl)c2Cl)c(=O)n(C)c1=O [Compound 1.033]", "target_or_test_system": "human PD-L1 (Homo sapiens (Human), UniProt Q9NZQ7)", "experimental_readout": "pIC50", "result_value": "6.00 to 8.00"}

# get_value(readout='pIC50', item= COc1nc(-c2cccc(-c3cccc(NC(=O)c4cn(C)c(=O)n(C)c4=O)c3C)c2Cl)ccc1CN[C@@H]1CCOC[C@H]1O [Compound 1.014] )
> 8.00

Try the compound COc1cc(-c2cccc(-c3cccc(NC(=O)c4cn(C)c(=O)n(C)c4=O)c3Cl)c2Cl)ncc1CNC[C@@H]1CCC(=O)N1 [Compound 1.093]
> 8.00
